The compounds listed here are annotated with their EC50.
# procedureText: Luminescence Cell-Based Dose Response HTS to Identify Activators of Luciferase Translation or Activity in H4 […] Cells. [Related pubchem assays: 1829 (Project Summary), 1814 (Primary HTS)]
# Format: functional
Calls of active or inactive are those of the source.
measurementKind: EC50

INSERT INTO results (chemicalsmiles, measurementkind, valuereported) VALUES
  ('COc1cc(C)c(Cl)c(C)c1S(=O)(=O)NC1CC(C)(C)NC(C)(C)C1', 'EC50', '> 120 µM (not active)'),
  ('COc1ccc(/C=C/C(=O)c2c(C)nc3ccccn23)cc1', 'EC50', '0.225 µM (active)'),
  ('O=C(C[n+]1cc(-c2ccc(F)cc2)n2c1CCC2)c1cccs1', 'EC50', '0.136 µM (inconclusive)'),
  ('Nc1ccc(S(=O)(=O)Nc2nccc(/C=C/c3ccc(Cl)cc3Cl)n2)cc1', 'EC50', '13.6 µM (active)'),
  ('COc1cccc(C2=NO[C@@H]3C(=O)N(c4ccc5c(c4)OCCO5)C(=O)[C@H]23)c1OC', 'EC50', '> 120 µM (not active)');

* * *

# procedureText: Luminescence Cell-Based Dose Retest to Confirm Inhibitors of Cancer Stem Cells. [Related pubchem assays (depositor defined):AID2717, AID2721]
# Type: functional
# details: Homo sapiens
The source made the active and inactive calls.
measurementKind: AC50

INSERT INTO assay_data (compound, valuereported) VALUES
  ('CCCCC1CCC(C(=O)N(CC(C)C)c2c(N)n(Cc3ccccc3)c(=O)[nH]c2=O)CC1 (centres undefined)', '2.96 µM (active)'),
  ('O=C(N/N=C/c1ccc2c(c1)OCO2)c1ccc(COCC(F)(F)C(F)F)cc1', '1.12 µM (active)'),
  ('COc1cccc(C(=O)Nc2ccc(C3CC3(Cl)Cl)cc2)c1 (centres undefined)', '3.15 µM (active)'),
  ('CC1(C)Cc2ccccc2C(CSc2ccccc2C(=O)O)=N1', '4.98 µM (active)');

* * *

The molecules listed here are annotated with their IC50.
# systemUnderTest: Polyadenylate-binding protein 1 (Homo sapiens)
# Sequence (P11940 whole entry): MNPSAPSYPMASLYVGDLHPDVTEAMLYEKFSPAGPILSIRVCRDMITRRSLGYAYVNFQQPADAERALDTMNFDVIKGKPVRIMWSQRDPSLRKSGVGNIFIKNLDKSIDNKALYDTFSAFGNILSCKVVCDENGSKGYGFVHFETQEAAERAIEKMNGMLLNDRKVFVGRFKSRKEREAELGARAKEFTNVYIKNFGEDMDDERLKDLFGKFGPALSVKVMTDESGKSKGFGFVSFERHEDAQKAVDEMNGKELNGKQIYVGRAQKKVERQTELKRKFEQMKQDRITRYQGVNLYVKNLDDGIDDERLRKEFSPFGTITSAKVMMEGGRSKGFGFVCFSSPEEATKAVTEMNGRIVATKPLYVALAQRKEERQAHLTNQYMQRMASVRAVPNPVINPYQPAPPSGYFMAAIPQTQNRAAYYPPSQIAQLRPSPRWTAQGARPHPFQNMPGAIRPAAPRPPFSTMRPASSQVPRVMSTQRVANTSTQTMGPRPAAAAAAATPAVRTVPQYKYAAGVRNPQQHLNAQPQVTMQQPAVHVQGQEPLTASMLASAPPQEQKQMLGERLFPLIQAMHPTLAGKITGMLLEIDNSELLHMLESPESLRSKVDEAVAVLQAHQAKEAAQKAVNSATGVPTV
# procedureText: PABP1 MLLE–PAM2 interaction inhibitors, dose response, miRNA deadenylation inhibitor project, biochemical, fluorescence polarization, Cy5-PAM2 peptide, secondary (AID 602260)
# Assay type: functional
# details: read-out: IC50_Mean
Calls of active or inactive are those of the source.
measurementKind: IC50

INSERT INTO results (molecule, valuereported) VALUES
  ('COc1ccc(/C(C)=N\NC(=O)CSc2nnc(C)s2)cc1', '> 66 µM (inactive)'),
  ('CCOC(=O)CSc1nc(C2CC2)nc2ccccc12', '> 66 µM (inactive)'),
  ('CC(=O)Nc1cccc(NC(=O)CSc2ncc(C(=O)Nc3ccccc3)c(=O)n2C)c1', '> 66 µM (inactive)'),
  ('CC(C)c1ccc(O)c(NC(=S)NC(=O)CCc2ccccc2)c1', '> 66 µM (inactive)'),
  ('Cc1cccc(N(C)C(=O)CCS(=O)(=O)c2cc3c(cc2Cl)NC(=O)CO3)c1', '> 66 µM (inactive)'),
  ('O=C1C=C(C2OC(CO)C(O)C2O)C(=O)N1 (configuration not stated)', '> 66 µM (inactive)'),
  ('Cc1ccc(NC(S)=Nc2ccccn2)cc1C', '> 66 µM (inactive)');

* * *

# systemUnderTest: RNA-binding protein pos-1 (Caenorhabditis elegans, UniProt G5EF15)
# Sequence (G5EF15 whole entry, the tested form may be a part): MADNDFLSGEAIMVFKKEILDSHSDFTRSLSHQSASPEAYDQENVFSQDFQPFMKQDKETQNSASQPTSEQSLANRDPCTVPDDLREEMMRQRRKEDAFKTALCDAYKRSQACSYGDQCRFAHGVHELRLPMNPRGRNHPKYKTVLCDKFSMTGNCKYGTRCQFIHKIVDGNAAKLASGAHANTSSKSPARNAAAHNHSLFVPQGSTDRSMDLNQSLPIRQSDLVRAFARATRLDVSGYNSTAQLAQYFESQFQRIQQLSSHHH
# procedureText: inhibitors of POS-1/mex-3 RNA binding, dose response, biochemical, fluorescence polarization (AID 1964);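 note: purified POS-1 fused to maltose binding protein made in E. coli; potency of compounds blocking POS-1 binding to fluorescent RNA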
Active and inactive are the calls of the source.
The compounds listed here are annotated with their EC50.
measurementKind: EC50

INSERT INTO assay_data (compound, valuereported) VALUES
  ('CN1CCc2cc3c(c4c2C1Cc1ccccc1-4)OCO3 (stereo not drawn)', '16.8 µM (active)'),
  ('O=[N+]([O-])c1cc(-c2ccc([As](=O)(O)O)cc2)ccc1[As](=O)(O)O', '22.8 µM (inconclusive)'),
  ('Cn1ncc2c(NNC(=O)c3ccc(O)cc3)ncnc21', '39.5 µM (active)'),
  ('CC1(C)CC(=O)C2=C(C1)OC(N)=C(C#N)C2c1ccc2c(c1)OCO2 (stereo not drawn)', '> 300 µM (not active)'),
  ('COc1ccc(N/C=C\C(=O)c2ccc(C)cc2)cc1OC', '> 300 µM (not active)'),
  ('Cc1cccc(Oc2nc(-c3ccccn3)nc3ccccc23)c1', '> 300 µM (not active)'),
  ('CC1CN(C2CC(C)(C)NC(C)(C)C2)CCC1=O (stereo not drawn)', '> 300 µM (not active)'),
  ('COc1ccccc1N=C(S)NNC(=O)c1cc(C)n(C)n1', '50.3 µM (active)');

* * *

The compounds listed here are annotated with their EC50.
# procedureText: C. albicans growth with fluconazole, confirmation, fluorescence, retest (AID 2467)
# Assay type: functional, cell-based
Calls of active or inactive are those of the source.
measurementKind: EC50

INSERT INTO assay_data (chemicalsmiles, valuereported) VALUES
  ('COc1ccc(-c2ccc(=O)n(CC(=O)Nc3cccc(O)c3)n2)cc1OC', '> 38000 nM (not active)'),
  ('O=C(NNc1ccc(Cl)cc1)c1c(F)cccc1Cl', '> 38000 nM (not active)'),
  ('CC[n+]1cc(C)ccc1C=Cc1ccc(N(C)C)cc1', '1250 nM (active)'),
  ('Cc1c(Cl)c([N+](=O)[O-])nn1Cc1ccc(C(=O)N/N=C\c2cc(Cl)ccc2O)o1', '754 nM (active)'),
  ('CCCCCc1ccc(OCCCC[n+]2ccccc2)c(CCCCC)c1', '< 30 nM (active)');

* * *

# systemUnderTest: Zinc finger protein mex-5 (Caenorhabditis elegans)
# Sequence (Q9XUB2 whole entry): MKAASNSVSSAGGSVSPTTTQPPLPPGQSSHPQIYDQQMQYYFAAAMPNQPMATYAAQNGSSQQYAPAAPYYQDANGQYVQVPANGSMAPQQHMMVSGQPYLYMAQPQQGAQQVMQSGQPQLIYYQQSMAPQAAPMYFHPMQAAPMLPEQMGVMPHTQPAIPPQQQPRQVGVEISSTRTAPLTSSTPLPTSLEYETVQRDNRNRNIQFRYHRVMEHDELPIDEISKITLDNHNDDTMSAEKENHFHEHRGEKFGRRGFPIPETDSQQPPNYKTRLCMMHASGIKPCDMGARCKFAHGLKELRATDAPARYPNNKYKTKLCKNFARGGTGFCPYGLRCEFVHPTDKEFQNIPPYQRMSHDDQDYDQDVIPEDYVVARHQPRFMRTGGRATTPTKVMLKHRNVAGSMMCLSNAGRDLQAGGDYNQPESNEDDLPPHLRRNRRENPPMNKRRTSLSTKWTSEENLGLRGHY
# procedureText: MEX-5/TCR-2 RNA interaction inhibitors, dose response, biochemical, C. elegans, fluorescence polarization (AID 1960)
Calls of active or inactive are those of the source.
measurementKind: EC50

INSERT INTO results (compound, valuereported) VALUES
  ('O=[N+]([O-])c1cc(-c2ccc([As](=O)(O)O)cc2)ccc1[As](=O)(O)O', '18 µM (active)'),
  ('CC1(C)CC(=O)C2=C(C1)OC(N)=C(C#N)C2c1ccc2c(c1)OCO2 (stereo not drawn)', '> 300 µM (not active)'),
  ('Cn1ncc2c(NNC(=O)c3ccc(O)cc3)ncnc21', '6.35 µM (active)'),
  ('COc1ccccc1N=C(S)NNC(=O)c1cc(C)n(C)n1', '58.4 µM (active)'),
  ('Cc1cccc(Oc2nc(-c3ccccn3)nc3ccccc23)c1', '173 µM (active)'),
  ('CN1CCc2cc3c(c4c2C1Cc1ccccc1-4)OCO3 (stereo not drawn)', '21.5 µM (inconclusive)'),
  ('CC1CN(C2CC(C)(C)NC(C)(C)C2)CCC1=O (stereo not drawn)', '> 300 µM (not active)'),
  ('COc1ccc(N/C=C\C(=O)c2ccc(C)cc2)cc1OC', '> 300 µM (not active)');

* * *

# systemUnderTest: Prothrombin (Homo sapiens)
# procedureText: Thrombin 1536 HTS Dose Response Confirmation. [Related pubchem assays: 1046 (Thrombin 1536 HTS; hits were confirmed in this assay)]
# Type: functional
Calls of active or inactive are those of the source.
The compounds listed here are annotated with their IC50.
measurementKind: IC50

INSERT INTO assay_data (chemicalsmiles, systemundertest, valuereported) VALUES
  ('CCn1cc(C(=O)NCc2ccc3c(c2)OCO3)c(=O)c2cc(S(=O)(=O)N(C)C)ccc21', 'Prothrombin (Homo sapiens)', '0.537 µM (active)'),
  ('O=C(Oc1oc(-c2ccco2)nc1/C=N/c1ccccc1)c1ccoc1', 'Prothrombin (Homo sapiens)', '1.37 µM (active)'),
  ('CC(=O)n1nc(-c2ccccc2)nc1NCc1ccc(F)cc1', 'Prothrombin (Homo sapiens)', '0.0165 µM (active)'),
  ('CCOC(=O)CSc1nnc(NC(=O)c2cc([N+](=O)[O-])cc([N+](=O)[O-])c2)s1', 'Prothrombin (Homo sapiens)', '> 50 µM (not active)'),
  ('CCOC(=O)c1[nH]c2ccccc2c1NC(=S)Nc1ccccc1', 'Prothrombin (Homo sapiens)', '3.09 µM (active)');

* * *

# systemUnderTest: CAAX prenyl protease 2 (Saccharomyces cerevisiae S288c, UniProt Q03530)
# Sequence (Q03530 whole entry): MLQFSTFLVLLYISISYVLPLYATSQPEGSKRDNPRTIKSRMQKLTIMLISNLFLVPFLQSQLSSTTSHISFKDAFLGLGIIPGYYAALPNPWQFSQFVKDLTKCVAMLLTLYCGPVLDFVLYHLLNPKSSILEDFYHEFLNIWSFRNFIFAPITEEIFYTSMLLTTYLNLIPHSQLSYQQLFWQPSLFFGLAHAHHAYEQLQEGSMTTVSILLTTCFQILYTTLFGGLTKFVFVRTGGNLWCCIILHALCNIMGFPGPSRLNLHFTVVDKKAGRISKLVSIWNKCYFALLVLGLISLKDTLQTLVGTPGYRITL
# Assay type: biochemical
Activity calls are given as the source filed them.
The molecules listed here are annotated with their AC50.
measurementKind: AC50

INSERT INTO measurements (molecule, valuereported) VALUES
  ('N=c1c2c(ncn1Cc1ccco1)Oc1ccc3ccccc3c1C2c1ccccc1 (centres undefined)', '27.2 µM (active)'),
  ('CCOC(=O)c1cc2c(=O)n3cccc(C)c3nc2n(CC(C)C)/c1=N/C(=O)c1ccco1', '14 µM (active)'),
  ('Oc1ccc(-c2nc3ccccn3c2NCc2ccc3c(c2)OCO3)cc1', '27.7 µM (active)'),
  ('CCOC(=O)c1cc2c(O)nccc2nc1C', '10.3 µM (active)');
